Reference source for all entries: paper PMC8875126

- measuredOn: UniProtKB N1RIS1
- Sequence (N1RIS1 1-527): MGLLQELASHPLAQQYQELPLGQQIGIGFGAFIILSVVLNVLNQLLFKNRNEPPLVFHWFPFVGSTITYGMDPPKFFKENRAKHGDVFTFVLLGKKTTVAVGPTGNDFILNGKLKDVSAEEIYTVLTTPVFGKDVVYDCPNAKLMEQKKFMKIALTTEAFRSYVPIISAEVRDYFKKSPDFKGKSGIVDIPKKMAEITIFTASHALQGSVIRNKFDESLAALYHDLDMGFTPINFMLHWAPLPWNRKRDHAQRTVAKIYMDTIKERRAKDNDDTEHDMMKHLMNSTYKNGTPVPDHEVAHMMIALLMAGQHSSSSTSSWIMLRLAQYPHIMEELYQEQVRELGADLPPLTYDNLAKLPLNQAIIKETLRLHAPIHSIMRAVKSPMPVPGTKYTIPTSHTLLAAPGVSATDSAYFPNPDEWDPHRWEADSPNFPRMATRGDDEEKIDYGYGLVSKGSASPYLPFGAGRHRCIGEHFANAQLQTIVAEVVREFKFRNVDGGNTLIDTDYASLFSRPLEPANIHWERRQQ
- measurementNotes: SPR (Biacore T200, protein amine-coupled on CM5 chip, […] kinetic fit)
- conditions: 25 °C; 3.125-50 μM analyte
experimentalEndpoint: Kd (nM)
Answers are plain numbers, in nM.

Query :: Tell me its Kd given `O[C@](Cc1ccccc1Cl)(Cn1[nH]cnc1=S)C1(Cl)CC1` as the entry.
Result :: 0.342
